# System: MDA-MB-231 breast
# assay.explanation: NCI tumour cell line growth inhibition, 48 h; in the data active = GI50 below about 0.43 µM; inactive = the rest
Outcomes: active, inactive

INSERT INTO measurements (compound, class_label) VALUES
  ('COc1cc(F)cc([C@@H](CO)NC(=O)[C@@H](C)N2Cc3ccc(-c4nc(NC5CCOCC5)ncc4Cl)cc3C2=O)c1', 'active'),
  ('O=C1c2cc(-c3ccccc3)ccc2-c2c1c1ccc([N+](=O)[O-])cc1c(=O)n2CCCBr', 'inactive'),
  ('COc1ccc([I+]c2ccccc2)cc1', 'inactive'),
  ('Cn1cc(-c2nc(-c3c[nH]c4ccncc34)cs2)c2cc(F)ccc21', 'inactive'),
  ('COc1ccc(-c2cn(-c3cccc(C(=O)/C=C/c4ccc(O)c(OC)c4)c3)c(=O)[nH]2)cc1', 'inactive'),
  ('CCCOC(=O)N[C@H]1CCc2cc(OC)c(OC)c(OC)c2-c2ccc(SC)c(=O)cc21', 'active'),
  ('C[C@@H](NC(=O)[C@@H](CC(=O)N1CCC(N2CCCCC2)CC1)N1C(=O)[C@@H](N2C(=O)OC[C@@H]2c2ccccc2)[C@H]1/C=C/c1cccc(Cl)c1)c1ccccc1', 'inactive'),
  ('CC(C)[NH-].CC(C)[NH-].O.O.[Cl][Pt+2][Cl]', 'inactive'),
  ('O=C(/C=C/c1cccc([N+](=O)[O-])c1)c1ccc(O)c(CN2CCN(c3cc4c(cc3F)c(=O)c(C(=O)O)cn4C3CC3)CC2)c1', 'inactive'),
  ('O=CC(Br)C(Br)c1ccccc1 (stereo not given)', 'inactive'),
  ('CN1C(=O)C(=Cc2cn(Cc3ccccc3)c3ccccc23)C(=O)N(C)C1=O', 'inactive'),
  ('O=C1C(Cl)=C(Nc2cccc(O)c2)C(=O)N1Cc1ccc(Cl)cc1', 'inactive'),
  ('COc1cc2c(cc1OC)C(CC1(O)CCCCC1)N(S(=O)(=O)c1ccc(C)cc1)CC2 (stereo not given)', 'inactive'),
  ('Oc1ccc2ccccc2c1C1NN=C(c2ccccc2)S1 (stereo not given)', 'inactive'),
  ('Cn1c(/C=C(\C#N)c2cccc(C(F)(F)F)c2)nc2c(N3CCOCC3)nc(Cl)nc21', 'inactive');
